Test: Pharmacokinetic parameters after oral or intravenous administration
Assay type: in vivo
Conditions: rat, plasma; rats, Oral (PO), 10 mg/kg
measured.quantity: AUC(0-t) (ng·h/mL)

{"columns": ["compound", "quantitative.readout"],
 "data": [
  ["O=C(Cc1c[nH]c2ccc(Cl)cc12)Nc1nc2ccc(N3CCOCC3)cc2s1 [Compound 6]", 4350],
  ["O=C(Cc1c[nH]c2ccc(Cl)cc12)Nc1nc2ccccc2s1 [Comparative Example 1, reference compound]", 366]
]}

====

Below, each of the compounds is paired with its reported logP value.
Assay: pH-metric solubility and logP (SIRIUS T3)
Format: physicochemical
Details: pH-metric results, SIRIUS T3

{"columns": ["compound", "logP"],
 "data": [
  ["O=C(Cc1c[nH]c2ccc(Cl)cc12)Nc1nc2ccc(N3CCOCC3)cc2s1", 3.04],
  ["O=C(Cc1c[nH]c2ccc(Cl)cc12)Nc1nc2ccccc2s1 [Comparative Example 1, reference compound]", 2.8]
]}
